target: mDOR (Mus musculus, UniProt P32300); experiment: cell-based; details: EC50 arrestin recruitment (BRET) mDOR
Sequence (P32300 whole entry): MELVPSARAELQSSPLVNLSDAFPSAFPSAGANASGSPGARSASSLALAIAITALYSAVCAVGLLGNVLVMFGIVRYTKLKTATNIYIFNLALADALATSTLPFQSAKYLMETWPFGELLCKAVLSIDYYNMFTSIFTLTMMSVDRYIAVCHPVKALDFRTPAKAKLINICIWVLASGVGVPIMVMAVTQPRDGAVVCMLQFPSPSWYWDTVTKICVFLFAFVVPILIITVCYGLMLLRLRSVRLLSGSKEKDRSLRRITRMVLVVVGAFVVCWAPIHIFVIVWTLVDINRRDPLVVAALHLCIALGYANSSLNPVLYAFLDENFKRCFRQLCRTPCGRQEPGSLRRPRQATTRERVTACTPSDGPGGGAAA
Exercise: for every item that follows, state its recorded pEC50.
Numbers only, as −log10 of the molar value.

Here's what some known entries look like.
Compound: O=C(NC1C=CC2C3Cc4ccc(O)c5c4C2(CCN3CC2CC2)C1O5)c1cccc(I)c1 (stereo not shown) [MP1104]
pEC50: 7.59

Compound: O=C(N[C@@H]1CC[C@@]2(O)C3Cc4ccc(O)cc4[C@@]2(CCN3CC2CC2)C1)c1cccc(I)c1 [MP1601]
pEC50: 8.05

Compound: O=C(N[C@@H]1CCC2C3Cc4ccc(O)c5c4[C@@]2(CCN3CC2CC2)C1O5)c1cccc(I)c1 (stereo partly shown) [MP1202]
pEC50: 6.28

Consider now this further compound.
Q) I am curious: what pEC50 value has been reported for O=C(NC1CCC2(O)C3Cc4ccc(O)c5c4C2(CCN3CC2CC2)C1O5)c1cccc(I)c1 (stereo not shown) [IBNtxA] ?
A) 7.58
